B1: Ribonuclease, P00648 (parent)
chain: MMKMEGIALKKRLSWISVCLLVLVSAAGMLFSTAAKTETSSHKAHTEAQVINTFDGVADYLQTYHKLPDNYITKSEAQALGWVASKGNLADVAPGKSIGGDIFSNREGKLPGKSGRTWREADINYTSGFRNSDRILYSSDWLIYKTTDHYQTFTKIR

- Variants of: B1
- MEASUREMENT SETUP: Bacillus amyloliquefaciens; pH 4.4; Thermal; DSC; Sodium acetate/Acetic acid 6.08 mM/13.92 mM/; reversible: yes (>95%); structure 1BNI; whole UniProt chain shown
ENDPOINT NAME: unfolding enthalpy (van 't Hoff) (kcal/mol)

D59G    124
D69M    128
D55A    127
R130Q    122
R116M    118
T73G    118
S139A    110
T63R    130
I98V    114
I135V    125

src = FireProtDB (doi:10.1093/protein/7.9.1089)
